Target: UniProt P11597
Sequence (P11597 18-493): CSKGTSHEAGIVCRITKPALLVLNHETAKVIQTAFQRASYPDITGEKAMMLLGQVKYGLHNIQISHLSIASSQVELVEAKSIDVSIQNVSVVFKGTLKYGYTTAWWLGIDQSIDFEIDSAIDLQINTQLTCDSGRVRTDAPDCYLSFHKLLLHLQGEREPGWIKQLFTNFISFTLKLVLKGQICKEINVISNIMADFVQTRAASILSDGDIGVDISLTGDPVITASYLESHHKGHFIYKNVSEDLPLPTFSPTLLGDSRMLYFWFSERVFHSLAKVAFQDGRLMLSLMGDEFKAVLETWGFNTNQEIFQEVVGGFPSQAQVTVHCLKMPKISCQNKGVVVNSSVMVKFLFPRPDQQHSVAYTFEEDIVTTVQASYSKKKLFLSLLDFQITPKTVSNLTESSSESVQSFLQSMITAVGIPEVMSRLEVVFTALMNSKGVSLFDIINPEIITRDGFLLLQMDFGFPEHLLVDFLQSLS
Assay: Inhibitory activity against CETP in vitro (fluorescent BODIPY-CE transfer from donor to acceptor microemulsion in diluted human plasma)
Conditions: plasma from a healthy volunteer diluted to 0.64%; preincubation with test solution 37° C. 24 hours; incubation with donor/acceptor microemulsion 37° C. 3 hours; fluorescence Ex.550 nm/Em.600 nm
Listed here are molecules together with their documented pIC50.
Scale for pIC50: -log10 of concentration given in mol/L; no unit attached.

Examples with answers:
1. CCOC(=O)N1c2ccc(OC)nc2[C@@H](N(Cc2cc(C(F)(F)F)cc(C(F)(F)F)c2)c2ccc(N3CCC(C(=O)O)CC3)cn2)C[C@H]1CC [Example 383]: 8.34
2. CCOC(=O)N1c2ccc(OC)nc2[C@@H](N(Cc2cc(C(F)(F)F)cc(C(F)(F)F)c2)c2ncc(OCCS(C)(=O)=O)cn2)C[C@H]1CC [Example 116]: 9.96

-- ask Give the measured pIC50 of CC[C@@H]1C[C@H](N(Cc2cc(C(F)(F)F)cc(C(F)(F)F)c2)c2ncc(N3CCOCC3)cn2)c2nc(OC)ccc2N1C(=O)OCC(C)(C)C(=O)O [Example 409] .
-- reply 9.08

-- ask Give the measured pIC50 of CCOC(=O)N1c2ccc(OC)nc2[C@@H](N(Cc2cc(C(F)(F)F)cc(C(F)(F)F)c2)c2ncc(N3CCOCC3)cn2)C[C@H]1CC [Example 22] .
-- reply 9.41

-- ask Give the measured pIC50 of CCOC(=O)N1c2ccc(N(C)C)nc2[C@@H](N(Cc2cc(C(F)(F)F)cc(C(F)(F)F)c2)c2ncc(N3CCN(C(C)=O)CC3)cn2)C[C@H]1CC [Example 337] .
-- reply 9.40

-- ask Give the measured pIC50 of CCC1CC(N(Cc2cc(C(F)(F)F)cc(C(F)(F)F)c2)c2ncc(CCC(=O)O)cn2)c2nc(OC)ccc2N1C(=O)OCC(F)(F)F (stereo not shown) [Example 356] .
-- reply 9.01

-- ask Give the measured pIC50 of CCOC(=O)N1c2ccc(OC)nc2[C@@H](N(Cc2cc(C(F)(F)F)cc(C(F)(F)F)c2)c2ncc(OCCC(=O)O)cn2)C[C@H]1CC [Example 269] .
-- reply 8.72
